Target: Tb-labeled inactive PDGFRβ (Homo sapiens (Human))
Sequence (P09619 whole entry, looked up): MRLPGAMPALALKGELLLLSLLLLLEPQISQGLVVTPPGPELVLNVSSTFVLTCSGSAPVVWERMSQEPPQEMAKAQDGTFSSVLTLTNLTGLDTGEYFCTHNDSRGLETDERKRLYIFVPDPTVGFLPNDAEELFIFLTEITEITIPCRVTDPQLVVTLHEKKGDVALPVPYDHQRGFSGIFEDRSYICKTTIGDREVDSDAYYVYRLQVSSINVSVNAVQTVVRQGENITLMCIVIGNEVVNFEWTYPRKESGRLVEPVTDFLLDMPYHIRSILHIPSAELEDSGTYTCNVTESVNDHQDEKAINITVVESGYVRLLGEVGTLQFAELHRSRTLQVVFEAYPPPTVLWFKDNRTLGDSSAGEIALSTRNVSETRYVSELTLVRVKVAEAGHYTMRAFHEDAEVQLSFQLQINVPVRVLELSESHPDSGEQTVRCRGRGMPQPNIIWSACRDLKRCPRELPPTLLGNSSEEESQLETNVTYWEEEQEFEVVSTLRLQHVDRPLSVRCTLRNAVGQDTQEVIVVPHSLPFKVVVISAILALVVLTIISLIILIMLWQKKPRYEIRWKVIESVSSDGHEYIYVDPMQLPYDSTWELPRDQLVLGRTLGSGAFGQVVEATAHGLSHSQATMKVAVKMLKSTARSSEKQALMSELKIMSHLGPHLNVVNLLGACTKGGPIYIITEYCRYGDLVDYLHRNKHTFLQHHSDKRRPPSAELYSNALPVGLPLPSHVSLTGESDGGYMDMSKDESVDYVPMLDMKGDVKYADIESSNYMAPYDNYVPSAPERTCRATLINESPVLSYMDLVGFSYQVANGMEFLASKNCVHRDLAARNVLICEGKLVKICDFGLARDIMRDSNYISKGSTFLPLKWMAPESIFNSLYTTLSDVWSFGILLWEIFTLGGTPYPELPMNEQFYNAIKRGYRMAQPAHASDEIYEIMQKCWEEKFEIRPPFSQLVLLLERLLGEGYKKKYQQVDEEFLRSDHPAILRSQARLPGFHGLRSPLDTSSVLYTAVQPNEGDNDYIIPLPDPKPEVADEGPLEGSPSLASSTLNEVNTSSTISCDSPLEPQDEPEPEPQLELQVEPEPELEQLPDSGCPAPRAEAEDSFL
Assay: biochemical
Format: binding
Details: read-out: PDGFR Lantha IC50
Could you please mark MET for values of IC50 below 2 nM and NOT MET for values at or above it?

>>> class("Cc1ncc(C(=O)NCCN2C[C@H](C)O[C@@H](C)C2)cc1Nc1nn(C)c2nc(Nc3cncnc3)ncc12")
"NOT MET"
>>> class("Cc1ncc(C(=O)NCCN2C3CCC2CC3)cc1Nc1nn(C)c2nc(Nc3cnn(C)c3)ncc12")
"MET"
>>> class("COC1CN(CC(=O)Nc2cnc(C)c(Nc3nn(C)c4nc(Nc5cnn(C)c5)ncc34)c2)C1")
"NOT MET"
>>> class("Cc1ncc(NC(=O)CN2CC[C@H](C)C2)cc1Nc1nn(C)c2nc(Nc3cnn(C)c3)ncc12")
"MET"
>>> class("COC1CCN(CC(=O)Nc2cnc(C)c(Nc3nn(C)c4nc(Nc5cnn(C)c5)ncc34)c2)CC1")
"NOT MET"
>>> class("COCCn1cc(Nc2ncc3c(Nc4cc(NC(=O)CN5CCC(C)(C)C5)cnc4C)nn(C)c3n2)cn1")
"MET"
>>> class("Cc1ccc(C(=O)NCCN2CCC[C@@H]2C)cc1Nc1nn(C)c2nc(Nc3cnn(C)c3)ncc12")
"NOT MET"

* * *

Target: Tb-labeled inactive PDGFRβ (Homo sapiens (Human))
Experiment: biochemical
Type: binding
Details: read-out: PDGFR Lantha IC50
observationType: log10(IC50) (log10 of the value in nM)

>>> testresult("Cc1ncc(C(=O)NCCN2CCCC2(C)C)cc1Nc1nn(C)c2nc(NC3CCS(=O)(=O)CC3)ncc12")
3.21
>>> testresult("Cc1ncc(C(=O)NCCN2CCCC2(C)C)cc1Nc1nn(C)c2nc(Nc3cccnc3)ncc12")
0.59
>>> testresult("Cc1ncc(C(=O)NCCN2CCCOCC2)cc1Nc1nn(C)c2nc(Nc3cnn(C)c3)ncc12")
0.46
>>> testresult("Cc1ncc(C(=O)NCCN2CCC(C)(C)C2)cc1Nc1nn(C)c2nc(Nc3cnn(C)c3)ncc12")
0.34
>>> testresult("COCCN(CCNC(=O)c1cnc(C)c(Nc2nn(C)c3nc(Nc4cnn(C)c4)ncc23)c1)C1CCCC1")
0.53
>>> testresult("Cc1ncc(C(=O)NCCN2CCCC2(C)C)cc1Nc1nn(C)c2nc(Nc3cncc(C(N)=O)c3)ncc12")
0.82
>>> testresult("Cc1ncc(C(=O)NCCN(CCO)C2CCCC2)cc1Nc1nn(C)c2nc(Nc3cnn(C)c3)ncc12")
0.38
>>> testresult("Cn1cc(Nc2ncc3c(Nc4cc(C(=O)NCCN5CC(C)(C)C5)ccc4F)nn(C)c3n2)cn1")
0.52

* * *

Target: Tb-labeled inactive PDGFRβ (Homo sapiens (Human))
Assay: biochemical
Assay type: binding
Details: read-out: PDGFR Lantha IC50
pIC50: −log10 of the molar value.
pIC50 of 8 or higher: true. Under 8: false.

>>> class("Cn1cc(Nc2ncc3c(Nc4cc(C(=O)NCCN5CCC6(CC6)C5)ccc4F)nn(C)c3n2)cn1")
"true"
>>> class("Cc1ncc(C(=O)NCCN(CCF)C2CCCC2)cc1Nc1nn(C)c2nc(Nc3cnn(C)c3)ncc12")
"true"
>>> class("Cc1ncc(C(=O)NCCN2CCCC23CCC3)cc1Nc1nn(C)c2nc(Nc3cnn(C)c3)ncc12")
"true"
>>> class("COCCCN(CCNC(=O)c1cnc(C)c(Nc2nn(C)c3nc(Nc4cnn(C)c4)ncc23)c1)C1CCC1")
"true"
>>> class("Cc1ncc(C(=O)NCCN(CCCO)C2CCCC2)cc1Nc1nn(C)c2nc(Nc3cnn(C)c3)ncc12")
"true"
>>> class("Cc1ncc(C(=O)NCCN2CCCC23CCC3)cc1Nc1nn(C)c2nc(Nc3cncnc3)ncc12")
"true"
>>> class("Cc1ncc(C(=O)NCCN2CCCC2(C)C)cc1Nc1nn(C)c2nc(Nc3cncc(C(=O)O)c3)ncc12")
"false"
>>> class("Cc1ncc(NC(=O)CN2CCC[C@@H]2C)cc1Nc1nn(C)c2nc(Nc3cnn(C4COC4)c3)ncc12")
"true"
>>> class("Cc1ncc(C(=O)NCCC2CCCCC2)cc1Nc1nn(C)c2nc(Nc3cncc(CC(=O)O)c3)ncc12")
"true"
>>> class("Cc1ncc(C(=O)NCCN2CCCC2(C)C)cc1Nc1nn(C)c2nc(Nc3ccc(=O)n(C)n3)ncc12")
"false"
>>> class("Cc1ncc(C(=O)NCCN2CCCCC23CC3)cc1Nc1nn(C)c2nc(Nc3cncnc3)ncc12")
"true"
>>> class("COCCN(CCNC(=O)c1cnc(C)c(Nc2nn(C)c3nc(Nc4cnn(C)c4)ncc23)c1)C1CCC1")
"true"
>>> class("Cc1cc(Nc2ncc3c(Nc4cc(C(=O)NCCN5CCC[C@@H]5C)cnc4C)nn(C)c3n2)n(C)n1")
"false"
>>> class("Cc1ncc(C(=O)NCCN2CCCCC23CC3)cc1Nc1nn(C)c2nc(Nc3cnn(C)c3)ncc12")
"true"
>>> class("Cc1ncc(C(=O)NCCN2CCCC2(C)C)cc1Nc1nn(C)c2nc(Nc3ccnc(N)c3)ncc12")
"true"
>>> class("Cc1ncc(C(=O)NCCC2CCCCC2)cc1Nc1nn(C)c2nc(Nc3ccc(N4CCNCC4)nc3)ncc12")
"true"
>>> class("Cc1ncc(C(=O)NCCN2CCC3(CC3)C2)cc1Nc1nn(C)c2nc(Nc3cncnc3)ncc12")
"true"
>>> class("Cc1ncc(C(=O)NCCN2C[C@H](C)O[C@@H](C)C2)cc1Nc1nn(C)c2nc(Nc3ccnc(N4CCC(CCO)CC4)c3)ncc12")
"true"
>>> class("COC1CCN(CCNC(=O)c2cc(C)c(Nc3nn(C)c4nc(Nc5cnn(C)c5)ncc34)s2)CC1")
"false"
>>> class("Cc1ncc(C(=O)NCCN2CCC(C)(C)C2)cc1Nc1nn(C)c2nc(Nc3cncnc3)ncc12")
"true"
>>> class("Cc1ncc(C(=O)NCCN2CCCC2(C)C)cc1Nc1nn(C)c2nc(Nc3cncnc3)ncc12")
"true"
>>> class("Cc1ncc(C(=O)NCCN2C3CCCC2CCC3)cc1Nc1nn(C)c2nc(Nc3cnn(C)c3)ncc12")
"true"
>>> class("Cc1ncc(NC(=O)CN2CCCC2(C)C)cc1Nc1nn(C)c2nc(Nc3cnn(C)c3)ncc12")
"true"
>>> class("Cc1ncc(C(=O)NCCC2CCCCC2)cc1Nc1nn(C)c2nc(Nc3ccnc(N4CCN(CCO)CC4)c3)ncc12")
"true"

* * *

Molecular target: PDGFRβ (Rattus norvegicus (Rat), UniProt Q05030)
Sequence (Q05030 whole entry, looked up): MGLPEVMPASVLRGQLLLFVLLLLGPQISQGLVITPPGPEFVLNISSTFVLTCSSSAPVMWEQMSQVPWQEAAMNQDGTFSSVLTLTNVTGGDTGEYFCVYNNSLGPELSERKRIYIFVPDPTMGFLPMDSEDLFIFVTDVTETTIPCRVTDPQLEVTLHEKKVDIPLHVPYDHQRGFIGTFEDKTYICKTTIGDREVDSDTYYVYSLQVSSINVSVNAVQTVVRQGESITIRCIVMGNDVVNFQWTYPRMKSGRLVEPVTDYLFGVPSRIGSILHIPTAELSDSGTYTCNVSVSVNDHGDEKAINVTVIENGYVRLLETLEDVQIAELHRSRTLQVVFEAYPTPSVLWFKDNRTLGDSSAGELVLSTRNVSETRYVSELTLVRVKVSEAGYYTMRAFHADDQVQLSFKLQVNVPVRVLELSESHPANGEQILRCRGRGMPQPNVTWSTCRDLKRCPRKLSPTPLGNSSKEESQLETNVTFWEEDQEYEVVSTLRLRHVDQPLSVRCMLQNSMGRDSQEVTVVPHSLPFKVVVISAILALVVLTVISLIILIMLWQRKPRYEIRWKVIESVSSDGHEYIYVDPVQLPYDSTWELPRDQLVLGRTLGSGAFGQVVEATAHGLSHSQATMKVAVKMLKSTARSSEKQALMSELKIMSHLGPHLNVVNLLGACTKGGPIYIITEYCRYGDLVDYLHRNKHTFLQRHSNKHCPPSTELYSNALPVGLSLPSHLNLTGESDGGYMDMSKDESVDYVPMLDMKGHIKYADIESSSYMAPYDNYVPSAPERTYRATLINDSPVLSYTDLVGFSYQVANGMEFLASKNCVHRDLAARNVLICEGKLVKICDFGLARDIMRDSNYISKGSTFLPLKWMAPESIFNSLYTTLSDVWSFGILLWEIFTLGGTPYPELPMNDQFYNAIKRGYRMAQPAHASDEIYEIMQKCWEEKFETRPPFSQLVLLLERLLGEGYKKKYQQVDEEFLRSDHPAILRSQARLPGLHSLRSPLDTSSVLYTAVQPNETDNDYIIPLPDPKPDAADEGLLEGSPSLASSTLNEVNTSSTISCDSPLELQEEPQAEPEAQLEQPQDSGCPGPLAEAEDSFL
Test: PDGFRβ Cellular Assay (PDGFRb P-Y751 HTRF, PDGF-BB stimulated A10 cells)
Format: cell-based
observationType: IC50 (nM)

>>> testresult("CC[C@H]1COCCN1CCNC(=O)c1cnc(C)c(Nc2nn(C)c3nc(Nc4cnn(C)c4)ncc23)c1 [Example 81]")
21.1
>>> testresult("Cc1ncc(C(=O)NCCN2CCOC3(CC3)C2)cc1Nc1nn(C)c2nc(Nc3cnn(C)c3)ncc12 [Example 54]")
36.3
>>> testresult("Cc1ncc(C(=O)NCCN(C)C2CCOCC2)cc1Nc1nn(C)c2nc(Nc3cnn(C)c3)ncc12 [Example 21]")
66.3
>>> testresult("Cc1ncc(C(=O)NCCN2CCCC23CC3)cc1Nc1nn(C)c2nc(Nc3cnn(C)c3)ncc12 [Example 53]")
6.2
>>> testresult("Cc1ncc(C(=O)NCCN2CCCC[C@H]2C)cc1Nc1nn(C)c2nc(Nc3cnn(C)c3)ncc12 [Example 82]")
20.2
>>> testresult("COC1CCN(CCNC(=O)c2cnc(C)c(Nc3nn(C)c4nc(Nc5cnn(C)c5)ncc34)c2)CC1 [Example 22]")
88.7
>>> testresult("Cc1ncc(C(=O)NCCN2[C@H](C)CCC[C@@H]2C)cc1Nc1nn(C)c2cc(Nc3cnn(C)c3)ncc12 [Example 68]")
112
>>> testresult("Cc1ncc(C(=O)NCCN2CCC3(CCO3)CC2)cc1Nc1nn(C)c2nc(Nc3cnn(C)c3)ncc12 [Example 19]")
56
>>> testresult("Cc1ncc(C(=O)NCCN2CCS(=O)(=O)CC2)cc1Nc1nn(C)c2nc(Nc3cnn(C)c3)ncc12 [Example 23]")
294
>>> testresult("Cc1ncc(C(=O)NCCN2CC[C@H](C)C2)cc1Nc1nn(C)c2nc(Nc3cncnc3)ncc12 [Example 12]")
110
>>> testresult("Cc1ncc(C(=O)NCCN2CCOCC23CC3)cc1Nc1nn(C)c2nc(Nc3cnn(C)c3)ncc12 [Example 24]")
22.1
>>> testresult("Cc1ncc(C(=O)NCCN2CC3COCC3C2)cc1Nc1nn(C)c2nc(Nc3cnn(C)c3)ncc12 (stereo not drawn) [Example 26]")
92.5
>>> testresult("Cc1ncc(C(=O)NCCN2CCC3(CCC3)C2)cc1Nc1nn(C)c2nc(Nc3cnn(C)c3)ncc12 [Example 83]")
26.2
>>> testresult("Cc1ncc(C(=O)NCCC2CCCCC2)cc1Nc1nn(C)c2nc(Nc3ccc(CC(=O)O)nc3)ncc12 [Example 106]")
12.6
>>> testresult("Cc1ncc(C(=O)NCCN2CCC3(CC2)COC3)cc1Nc1nn(C)c2nc(Nc3cnn(C)c3)ncc12 [Example 20]")
168

Reference source for all entries: patent US20240360134A1
